Biological target: Nuclear receptor ROR-gamma (Mus musculus)
Experiment: qHTS for inhibitors of ROR gamma transcriptional activity; further: nearly all actives have a fitted effect of over 60% in size
Settings: Drosophila S2 Gal4-RORgamma UAS-luciferase reporter, 20 h; series mostly up to 53.6 µM
About 17,000 (5.5%) of roughly 310,000 compounds were called active. Inconclusive results (about 11%) are left out. The call rests on the fitted dose curve; in most records, active means well fitted inhibition curve with a large enough effect; inconclusive means small, poorly fitted or top-dose-only effect, or effect the other way; inactive means no such curve, though single readings can be large or run the other way. The list comes from a sample in which actives are over-represented; it also holds close analogues and randomly drawn compounds.
Pick one: YES for active, NO for inactive

compound	group
C=CCn1c(SCC(=O)NCCCO)nc2sc3c(c2c1=O)CCC3	NO
Cc1cc(C(=O)CCl)c(C)n1CC1COc2ccccc2O1 (configuration not stated)	YES
COCCOC(=O)C1=C(C)N=c2s/c(=C\c3cccs3)c(=O)n2C1c1cccs1 (configuration not stated)	NO

For this compound, state the assay outcome: O=C(NCC1COc2ccccc2O1)C1(c2ccccc2)CCCC1 (configuration not stated) NO

For this compound, state the assay outcome: COc1ccccc1N1CCN(S(=O)(=O)CCNC(=O)c2ccc(OC(C)C)cc2)CC1 NO

----------
Molecular target: Nuclear receptor ROR-gamma (Mus musculus)
Assay: qHTS for inhibitors of ROR gamma transcriptional activity; further: nearly all actives have a fitted effect of over 60% in size
Conditions: Drosophila S2 Gal4-RORgamma UAS-luciferase reporter, 20 h; series mostly up to 53.6 µM
Text: NIH Molecular Libraries Probe Production Network [MLPCN] NIH Chemical Genomics Center [NCGC] […] Small molecule inhibitors of ROR gamma activity are detected by a decrease in luciferase reporter activity. […]
Among all 310,000 compounds or so, about 17,000 (5.5%) were called active. Roughly 11% stayed inconclusive and do not appear here. Calls come from the whole dose curve; as a rule, active = well fitted inhibition curve with a large enough effect; inconclusive = small, poorly fitted or top-dose-only effect, or effect the other way; inactive = no such curve, though single readings can be large or run the other way. Shown is part of a subset that was picked to be rich in actives.
Pick one: active, inactive

compound	group
O=C(N/N=C/c1cc(Cl)cc([N+](=O)[O-])c1O)C(O)(c1ccccc1)c1ccccc1	active
O=[N+]([O-])c1cc(Cl)cc(/C=N/NC(=S)Nc2cc(S(=O)(=O)N3CCOCC3)ccc2Cl)c1O	inactive
Cc1cc(Cl)ccc1C(=O)C1CCCN(C(=O)c2nonc2C)C1 (stereo not given)	inactive

For this compound, state the assay outcome: Cc1ccc2[nH]c(=O)c(CC(=O)O)c(-c3ccccc3)c2c1 inactive

For this compound, state the assay outcome: CCCCNC(=S)N/N=C1\CCCCc2ccccc21 active

----------
Target: Nuclear receptor ROR-gamma (Mus musculus)
Experiment: qHTS for inhibitors of ROR gamma transcriptional activity; further: nearly all actives have a fitted effect of over 60% in size; further: potency means the concentration at half of the fitted maximal effect
Details: Drosophila S2 Gal4-RORgamma UAS-luciferase reporter, 20 h; series mostly up to 53.6 µM
Among all 310,000 compounds or so, about 17,000 (5.5%) were called active. Another 11% or so got no clear call; they are omitted. The sample holds actives, similar compounds and a random draw of the others, so the mix is not that of the screen.
quantity: Potency

compound	quantity	result
Cc1ccccc1NC(=O)c1ccccc1NS(=O)(=O)c1cccc2cccnc12	Potency	inactive
Cc1cccc(NC(=O)c2nc[nH]c2C(=O)NCC(=O)OCc2ccccc2)c1	Potency	12.6 µM (active)
CC(C)[C@H](NC(=O)OCc1ccccc1)C(=O)OCc1ccccc1	Potency	inactive
O=[N+]([O-])c1cccc2ncccc12	Potency	inactive
O=C(c1ccc(Br)o1)N1CCN(CCOc2ccccc2)CC1	Potency	inactive

Next, consider the following compound.
Need Potency of O=C1NC(=O)C(c2ccc(Cl)cc2)N1 (stereo unspecified) , thanks. inactive

----------
Biological target: Nuclear receptor ROR-gamma (Mus musculus)
Assay: qHTS for inhibitors of ROR gamma transcriptional activity; further: nearly all actives have a fitted effect of over 60% in size
Details: Drosophila S2 Gal4-RORgamma UAS-luciferase reporter, 20 h; series mostly up to 53.6 µM
Among all 310,000 compounds or so, about 17,000 (5.5%) were called active. Not shown: some 11% with an inconclusive outcome. Calls follow the shape of the dose curve; as a rule, active = well fitted inhibition curve with a large enough effect; inconclusive = small, poorly fitted or top-dose-only effect, or effect the other way; inactive = no such curve, though single readings can be large or run the other way. Many of the other results were omitted from the sample, so actives are more common in it than they were.
Pick one: active, inactive

Answered cases to consult:
molecule	group
COc1ccc(C)cc1NC(=S)N1CCOCC1	inactive
COc1ccc(C2(O)C(=O)Nc3ccccc32)cc1 (configuration not stated)	inactive
Cc1ccc2c(c1)C(c1ccccc1)N(C(=O)c1ccc(F)cc1)CC(=O)N2 (configuration not stated)	inactive
S=C(NCc1cccs1)Nc1ccc(Cl)cc1	active
COc1ccc(C2NC(=O)N(C)C(C)=C2[N+](=O)[O-])cc1 (configuration not stated)	inactive
COc1ccc(CSc2nnnn2-c2ccc(C(=O)O)cc2)cc1	inactive
O=C(Cc1cccc2ccccc12)NNC(=O)Nc1ccc(Cl)cc1	inactive
Cn1cc(C(=O)NCc2ccccc2F)cn1	inactive
COc1ccc(NC(=S)N2CCc3cc(OC)c(OC)cc3C2)cc1	inactive
CN(Cc1ccccc1)C(=O)CSc1nc2ccccc2[nH]1	inactive

For this molecule, state the assay outcome: O=C(N/N=C/c1ccccc1O)/C(=C/c1ccccc1)CCO active

For this molecule, state the assay outcome: CCC(=O)/C(=C(/O)c1ccccc1)c1nc2ccccc2[nH]1 active
